TARGET_OF_ASSAY: Lactoylglutathione lyase (Homo sapiens, UniProt Q04760)
Sequence (Q04760 whole entry): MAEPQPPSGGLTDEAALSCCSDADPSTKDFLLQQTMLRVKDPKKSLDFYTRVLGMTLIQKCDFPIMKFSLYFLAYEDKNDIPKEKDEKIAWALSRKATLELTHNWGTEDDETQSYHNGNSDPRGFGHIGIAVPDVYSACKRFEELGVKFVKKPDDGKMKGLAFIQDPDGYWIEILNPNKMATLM
ASSAY: Competitive inhibition of human Glyoxalase-1 using GSH and MGO as substrate
pKi: −log10 of the molar value.
OBSERVED_PROPERTY: pKi

{"SMILES_CODE": "C#Cc1cccc(N(O)C(=O)CC[C@H](NC(=O)CC[C@H](N)C(=O)O)C(=O)NCC(=O)O)c1", "OBSERVED_PROPERTY": "pKi", "REPORTED_RESULT": 9.00}

A. C#Cc1cccc(N(O)C(=O)SC[C@H](NC(=O)CC[C@H](N)C(=O)O)C(=O)NCC(=O)O)c1
B. C#Cc1ccc(N(O)C(=O)SC[C@H](NC(=O)CC[C@H](N)C(=O)O)C(=O)NCC(=O)O)cc1
Endpoint returns whichever of A and B has the numerically higher pKi. Answer by quoting the chosen item's label.
B
